Data credit: patent US20250002593A1

Target: T1, Recombinant hIL-36R protein (Acrobio, Cat #IL2-H52H6) (human, UniProt Q9HB29 20-335)
T1 construct: Bought soluble protein; also called recombinant human IL-36R protein
T1 sequence: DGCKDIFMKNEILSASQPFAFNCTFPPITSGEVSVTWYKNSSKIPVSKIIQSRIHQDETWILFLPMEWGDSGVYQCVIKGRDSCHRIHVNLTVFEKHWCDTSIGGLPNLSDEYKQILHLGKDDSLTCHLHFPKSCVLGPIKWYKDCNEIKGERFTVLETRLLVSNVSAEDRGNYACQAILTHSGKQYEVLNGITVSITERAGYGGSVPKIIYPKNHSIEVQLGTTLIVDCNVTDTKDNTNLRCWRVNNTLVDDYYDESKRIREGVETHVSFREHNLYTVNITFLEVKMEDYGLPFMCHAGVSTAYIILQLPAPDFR
Assay: BLI (Gator), antibody on Protein A sensor, hIL-36R analyte
pKd: −log10 of the molar value.
outcome.measure: pKd

binder	outcome.measure	value.reported
1A21 (antibody, V domains shown, Mouse variable regions, recombinantly expressed) VH: EVQLQQSGPELVKPGDSVKISCKASGYSFTGYFMNWVMQSHGKSLEWIGRINPYNGDTFYNQKFKGKATLTVDKSSSTAHMELRSLTSEDSAVYYCAGLGHWYFDVWGTGTTVTVSS VL: DIVMTQSTLSLPVSLGDQASISCRSSQSIVHSNGNTYLEWYLQKPGQSPKLLIYKVSNRFSGVPDRFSGSGSGTDFTLKISRVEAEDLGVYYCFQGSHVPWTFGGGTKLEIK	pKd	9.27
1J3 (antibody, V domains shown, Mouse variable regions, recombinantly expressed) VH: QVQLEQSGGDLVKPGGSLKLSCAASGFTFSSYGMSWVRQTPDKRLEWVATISSYGSYTSYPDTVKGRFTISRDNAKNTLYLQMSSLKSEDTAMYYCARPDYYVSTGFDYWGQGTTLTVSS VL: DIVITQSTATLSVTPGDRVSLSCRASQSISDYLHWYQQKSHESPRLLIKYASQSISGIPSRFSGSGSGSDFTLSINSVEPEDVGVYYCQNGHSFPFTFGSGTKLEIK	pKd	9.22
9A6 (antibody, V domains shown, Mouse variable regions; also called chimeric antibody 9A6) VH: QVQLQQSGPGLMAPSQSLSITCTVSGFSLTSYDVSWIRQSPGKGLEWLGVIWTGGGTDYNSAFMSRLSITKDNSKSQVFLKMSSLQTDDTAIYYCVRVYYDPYYAMDYWGQGTSVTVSS VL: DIVLTQSPAIMSASPGEKVTMTCSASSSVSSRYLHWYQQKSGASPKLWIYGTSNLASGVPARFSGSGSGTSYSLTISSVEAEDAATYYCQQYHSDPLTFGAGTKLELK	pKd	10.69
